assay: Intracellular ATP levels; type: cell-based, rat; settings: rat
measured_parameter: CC50 at 24 h (µM)

* COc1cccc2c1C(=O)c1c(O)c3c(c(O)c1C2=O)C[C@@](O)(C(=O)CO)C[C@@H]3O[C@H]1C[C@H](N)[C@H](O)[C@H](C)O1 [ADRIAMYCIN, Adriamycin] | 6
* Cc1cccc(C)c1OCC(=O)N[C@@H](Cc1ccccc1)[C@@H](O)C[C@H](Cc1ccccc1)NC(=O)[C@H](C(C)C)N1CCCNC1=O [LOPINAVIR, lopinavir] | 72
* CC(=O)[C@]1(O)Cc2c(O)c3c(c(O)c2[C@@H](O[C@H]2C[C@H](N)[C@H](O)[C@H](C)O2)C1)C(=O)c1ccccc1C3=O [IDARUBICIN, idarubicin] | 2
* Nc1nc(NC2CC2)c2ncn([C@H]3C=C[C@@H](CO)C3)c2n1 [ABACAVIR, abacavir] | 165

---

Reported values of CC50 at 24 h for individual entries
assay: Intracellular total glutathione (GSH); assay type: cell-based, rat; settings: rat
measured_parameter: CC50 at 24 h (µM)

* CC(C)(C)NC(=O)[C@@H]1CN(Cc2cccnc2)CCN1C[C@@H](O)C[C@@H](Cc1ccccc1)C(=O)N[C@H]1c2ccccc2C[C@H]1O | 71
* COc1cccc2c1C(=O)c1c(O)c3c(c(O)c1C2=O)C[C@@](O)(C(=O)CO)C[C@@H]3O[C@H]1C[C@H](N)[C@@H](O)[C@H](C)O1 [EPIRUBICIN, epirubicin] | 13

---

Reported values of CC50 at 24 h for individual entries
assay: MTT reduction; type: cell-based, rat; conditions: rat
measured_parameter: CC50 at 24 h (µM)

• CC(C)Nc1cccnc1N1CCN(C(=O)c2cc3cc(NS(C)(=O)=O)ccc3[nH]2)CC1 = 252
• O=C1c2c(O)ccc(O)c2C(=O)c2c(NCCNCCO)ccc(NCCNCCO)c21 = 1
• COc1cccc2c1C(=O)c1c(O)c3c(c(O)c1C2=O)C[C@@](O)(C(=O)CO)C[C@@H]3O[C@H]1C[C@H](N)[C@@H](O)[C@H](C)O1 [EPIRUBICIN, epirubicin] = 16
• O=C1Nc2ccc(Cl)cc2[C@@](C#CC2CC2)(C(F)(F)F)O1 = 79

---

experiment: Solubility in culture medium (nephelometry); type: physicochemical; settings: 37 °C, plasma or biological fluid, kinetic from dmso stock, dosing medium with 20% serum, 37° C.; CM 6 HR; read-out: Highest Soluble Concentration Tested
measured_parameter: solubility (µM)

- COc1cccc2c1C(=O)c1c(O)c3c(c(O)c1C2=O)C[C@@](O)(C(=O)CO)C[C@@H]3O[C@H]1C[C@H](N)[C@H](O)[C@H](C)O1: 100

---

test: MemTox membrane leakage (AK / α-GST); assay type: cell-based, rat; settings: rat, MemTox TC50
Reported values of CC50 at 24 h for individual entries
measured_parameter: CC50 at 24 h

• CC(=O)[C@]1(O)Cc2c(O)c3c(c(O)c2[C@@H](O[C@H]2C[C@H](N)[C@H](O)[C@H](C)O2)C1)C(=O)c1ccccc1C3=O = 30 µM
• Cc1ccnc2c1NC(=O)c1cccnc1N2C1CC1 = > 300 µM
• COc1cccc2c1C(=O)c1c(O)c3c(c(O)c1C2=O)C[C@@](O)(C(=O)CO)C[C@@H]3O[C@H]1C[C@H](N)[C@@H](O)[C@H](C)O1 [EPIRUBICIN, epirubicin] = 37 µM
• CC(C)Nc1cccnc1N1CCN(C(=O)c2cc3cc(NS(C)(=O)=O)ccc3[nH]2)CC1 = > 300 µM

Entry source: patent US7615361B2
